From various publications: IC50 for Coagulation factor IX (Homo sapiens, UniProt P00740).

For the molecule Nc1noc2c(N3CC[C@@H](NC(=O)c4ccc(-n5cnnc5)cc4Cl)C3)cc(Cl)c(Cl)c12 , what IC50 is on record? ≤ 100 nM

Find the recorded IC50 belonging to Cc1cc2c(N)noc2c(N2C[C@@H]3CC[C@H]2[C@@H]3NC(=O)c2ccc(-n3cnnc3C(F)(F)F)cc2Cl)n1 (relative stereo) and report it. ≤ 100 nM

I would be grateful if you could share the reported IC50 for COc1cc(-n2cc(F)c(N3CCO[C@H]([C@@](C)(O)C(=O)Nc4ccc5c(N)noc5c4)C3=O)n2)cnn1 . 6.48 nM

Param item = Nc1noc2c(N3C[C@@H]4CC[C@H]3[C@@H]4NC(=O)c3ccc(-n4cnnc4)cc3Cl)cccc12 (relative stereo) ; retrieve measured IC50. ≤ 100 nM

====

Reported IC50 against Coagulation factor IX (Homo sapiens), gathered from multiple publications, appears below.
I only need the number, in nM, no unit after it.

Request - read-out IC50 | tested on Coagulation factor IX (Homo sapiens) | compound COc1nccc(-n2ccc(N3CCO[C@](C)([C@@H](O)C(=O)Nc4ccc5c(N)noc5c4)C3=O)n2)n1 10.8

Item: Nc1nc2ccc(NC(=O)C(O)C(NC(=O)c3ccc(-c4cccs4)s3)c3ccccc3)cc2[nH]1 (centres unmarked) Test system: Coagulation factor IX (Homo sapiens) Read-out: IC50 Value: ? 570

What IC50 appears in the records for this compound with Coagulation factor IX (Homo sapiens)? Cc1nn(C)c2nc(N3CCO[C@H]([C@@](C)(O)C(=O)Nc4ccc5c(N)noc5c4)C3=O)ccc12 195

Param readout = IC50; param system = Coagulation factor IX (Homo sapiens); param query = CC(C)(C)c1ccc(-n2cccc(C(O)C(=O)Nc3ccc4c(N)noc4c3)c2=O)cc1 (racemic) ; response: value 1000

Given the entry COc1nccc(-n2ccc(N3CCO[C@](C)([C@@H](O)C(=O)Nc4cc(F)c5c(N)noc5c4)C3=O)n2)n1 , what IC50 was observed with Coagulation factor IX (Homo sapiens)? 22.1

Quick check: IC50 on Coagulation factor IX (Homo sapiens), item C[C@]1([C@@H](O)C(=O)Nc2ccc3c(N)noc3c2)OCCN(c2ccc3ccncc3n2)C1=O ? 544

API: value(readout= IC50, system= Coagulation factor IX (Homo sapiens), query= C[C@]1([C@@H](O)C(=O)Nc2ccc3c(N)noc3c2)OCCN(c2ccn(-c3cccnc3)n2)C1=O ) 279

What reported IC50 corresponds to [2H]C([2H])([2H])Oc1cc(-n2ccc(N3CCO[C@](C)([C@@H](O)C(=O)Nc4ccc5c(N)noc5c4)C3=O)n2)cnn1 on Coagulation factor IX (Homo sapiens)? 3.7

Please tell me: IC50 of C[C@]1([C@@H](O)C(=O)Nc2ccc3c(N)noc3c2)OCCN(c2ccn(-c3cnnc(C#N)c3)n2)C1=O , system Coagulation factor IX (Homo sapiens)? 2.17
